- System: Quackgrass
- protocol.description: Pre-emergent herbicidal activity
- Type: in vivo
- condition.details: Table III; 11.2 kg/h; 2 WAT
In this section, each of the compounds is paired with its reported pre-emergent herbicidal activity index.

Lookup result for `CCOC(=O)CN(CP(=O)(Oc1ccc(OC)cc1)Oc1ccc(OC)cc1)SSC` ; measured pre-emergent herbicidal activity index: 0 (0-24% control)

Lookup result for `O=C(CN(CP(=O)(Oc1ccccc1)Oc1ccccc1)SSC1CCCCC1)OCc1ccccc1` ; measured pre-emergent herbicidal activity index: 0 (0-24% control)

Lookup result for `COC(=O)CN(CP(=O)(Oc1ccccc1OC)Oc1ccccc1OC)SSc1cccc(C(F)(F)F)c1` ; measured pre-emergent herbicidal activity index: 1 (25-49% control)

***
Lookup result for `CCCCCCCCSSN(CC(=O)OC)CP(=O)(Oc1ccccc1)Oc1ccccc1` ; measured pre-emergent herbicidal activity index: 0 (0-24% control)

Lookup result for `O=C(CN(CP(=O)(Oc1ccccc1)Oc1ccccc1)SSCCc1ccccc1)OCc1ccccc1` ; measured pre-emergent herbicidal activity index: 1 (25-49% control)

Lookup result for `COC(=O)CN(CP(=O)(Oc1ccccc1)Oc1ccccc1)SSC(C)C` ; measured pre-emergent herbicidal activity index: 3 (75-100% control)

###

In this section, each of the compounds is paired with its reported post-emergence herbicidal activity index.
- Tested on: Lambsquarters
- protocol.description: Post-emergence herbicidal activity, greenhouse
- Assay type: in vivo
- condition.details: Table I; 11.2 kg/h; 4 WAT

Lookup result for `O=C(CN(CP(=O)(Oc1ccccc1)Oc1ccccc1)SSCCc1ccccc1)OCc1ccccc1` ; measured post-emergence herbicidal activity index: 3 (75-99% control)

Lookup result for `COC(=O)CN(CP(=O)(Oc1ccccc1)Oc1ccccc1)SSC(C)C` ; measured post-emergence herbicidal activity index: 4 (100% control)

Lookup result for `CCCCCCCCSSN(CC(=O)OC)CP(=O)(Oc1ccccc1)Oc1ccccc1` ; measured post-emergence herbicidal activity index: 4 (100% control)

###

In this section, each of the compounds is paired with its reported pre-emergent herbicidal activity index.
- Test system: Downy Brome
- protocol.description: Pre-emergent herbicidal activity
- Format: in vivo
- condition.details: Table III; 11.2 kg/h; 2 WAT

# annotated cases, reported pre-emergent herbicidal activity index shown
Lookup result for CCCCCCCCSSN(CC(=O)OC)CP(=O)(Oc1ccccc1)Oc1ccccc1 [II] ; measured pre-emergent herbicidal activity index: 0 (0-24% control)

Lookup result for O=C(CN(CP(=O)(Oc1ccccc1)Oc1ccccc1)SSC1CCCCC1)OCc1ccccc1 [III] ; measured pre-emergent herbicidal activity index: 0 (0-24% control)

Lookup result for COC(=O)CN(CP(=O)(Oc1ccccc1OC)Oc1ccccc1OC)SSc1cccc(C(F)(F)F)c1 [V] ; measured pre-emergent herbicidal activity index: 2 (50-74% control)

Lookup result for O=C(CN(CP(=O)(Oc1ccccc1)Oc1ccccc1)SSCCc1ccccc1)OCc1ccccc1 [IV] ; measured pre-emergent herbicidal activity index: 0 (0-24% control)

Lookup result for CCOC(=O)CN(CP(=O)(Oc1ccc(OC)cc1)Oc1ccc(OC)cc1)SSC [VI] ; measured pre-emergent herbicidal activity index: 0 (0-24% control)

***
Lookup result for COC(=O)CN(CP(=O)(Oc1ccccc1)Oc1ccccc1)SSC(C)C [I] ; measured pre-emergent herbicidal activity index: 2 (50-74% control)

###

- Test system: Sorghum
- protocol.description: Post-emergence herbicidal activity, greenhouse
- Type: in vivo
- condition.details: Table II; 1.12 kg/h; 4 WAT
In this section, each of the molecules is paired with its reported post-emergence herbicidal activity index.

# annotated cases, reported post-emergence herbicidal activity index shown
COC(=O)CN(CP(=O)(Oc1ccccc1)Oc1ccccc1)SSC(C)C [I] tested on Sorghum gave post-emergence herbicidal activity index: 1 (25-49% control)

O=C(CN(CP(=O)(Oc1ccccc1)Oc1ccccc1)SSCCc1ccccc1)OCc1ccccc1 [IV] tested on Sorghum gave post-emergence herbicidal activity index: 0 (0- 24% control)

COC(=O)CN(CP(=O)(Oc1ccccc1OC)Oc1ccccc1OC)SSc1cccc(C(F)(F)F)c1 [V] tested on Sorghum gave post-emergence herbicidal activity index: 0 (0- 24% control)

CCCCCCCCSSN(CC(=O)OC)CP(=O)(Oc1ccccc1)Oc1ccccc1 [II] tested on Sorghum gave post-emergence herbicidal activity index: 1 (25-49% control)

Kindly review the next molecule as well.
CCOC(=O)CN(CP(=O)(Oc1ccc(OC)cc1)Oc1ccc(OC)cc1)SSC [VI] tested on Sorghum gave post-emergence herbicidal activity index: 2 (50-74% control)

Origin of values: patent US4401604A
